molecular target: T1, human GLP-1 receptor (human, UniProt P43220 24-463); test: SPA competition vs [125I]-GLP-1, hGLP-1R membranes
T1 construct: whole, on cells; also called hGLP-1R; human glucagon-like peptide-1 receptor
measured parameter: pKi
API: returns pKi as number; meaning -log10 of concentration in mol/L.

Worked examples, 4 binders total:
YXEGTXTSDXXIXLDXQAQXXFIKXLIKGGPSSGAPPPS (Aib2, αMeF(2F)6, 4Pal10, Aib11, αMeL13, Orn16, Aib20, 4Pal21, K24(Z1), αMeY25, K28(Z1), C-term NH2; Z1=AEEA2-(γ-Glu)-(10-(4-carboxyphenoxy)decanoyl)) | 9.60
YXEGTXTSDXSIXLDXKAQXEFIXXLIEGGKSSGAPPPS (Aib2, αMeF(2F)6, 4Pal10, αMeL13, Orn16, K17(Z1), Aib20, D-Glu24, αMeY25, K31(Z1), C-term NH2; Z1=(εK)-AEEA-(γ-Glu)-CO-(CH2)12-CO2H) | 8.83
YXEGTXTSDXXGXLDXQAQXXFIKXLIKGGPSSGAPPPS (Aib2, αMeF(2F)6, 4Pal10, Aib11, αMeL13, Orn16, Aib20, Orn21, K24(Z1), αMeY25, K28(Z1), C-term NH2; Z1=AEEA2-(γ-Glu)-CO-(CH2)12-CO2H, G at position 12) | 9.41
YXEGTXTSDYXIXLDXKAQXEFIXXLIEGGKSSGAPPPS (Aib2, αMeF(2F)6, Aib11, αMeL13, Orn16, K17(Z1), Aib20, D-Glu24, αMeY25, K31(Z1), C-term NH2; Z1=AEEA2-(γ-Glu)-CO-(CH2)12-CO2H) | 9.06

Now turn to the next binder.
Enquiry: Recorded pKi of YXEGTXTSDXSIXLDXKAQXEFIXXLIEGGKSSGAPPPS (Aib2, αMeF(2F)6, 4Pal10, αMeL13, Orn16, K17(Z1), Aib20, D-Glu24, αMeY25, K31(Z1), C-term NH2; Z1=AEEA2-(γ-Glu)-CO-(CH2)10-CH3) , please.
Return: 9.81
